Tested on: H 460 (lung carcinoma)
Experiment: MTT proliferation assay, H 460 cells
Assay type: cell-based
Settings: Homo sapiens, NCI-H460, 72 hours incubation, read-out: IC50 (concentration that causes 50% growth inhibition), H 460
In plain terms, low IC50, meaning strictly below 10 µM, gives YES, and everything else gives NO.

// query Hi there! Is IC50 for C1COCCOCCN(CCC23CC4CC(CC(C4)C2)C3)CCOCCOCCO1 [Compound 1, N-[2-(1-adamantyl)ethyl]-aza-18-crown-6] below 10 µM, do you know?
// result NO

// query Bench note: check whether C1COCCOCCNCCOCCOCCN1 [Diaza-18-crown-6, diaza-18-crown-6, reference compound] shows IC50 below 10 µM
// result NO

// query Please determine if C1COCCN(CCC23CC4CC(CC(C4)C2)C3)CCOCCOCCN(CCC23CC4CC(CC(C4)C2)C3)CCO1 is below 10 µM in terms of IC50.
// result YES

// query Problem: For the molecule O=C(CC12CC3CC(CC(C3)C1)C2)N1CCOCCOCCOCCOCCOCC1 , is IC50 under 10 µM?
// result NO

// query Lab log: compare recorded IC50 with 10 µM; is it strictly lower for C(CN1CCOCCOCCN(CCCC23CC4CC(CC(C4)C2)C3)CCOCCOCC1)CC12CC3CC(CC(C3)C1)C2 ?
// result YES

// query Bench note: check whether C(CN1CCOCCOCCOCCOCCOCC1)CC12CC3CC(CC(C3)C1)C2 [Compound 2, N-[3-(1-adamantyl)propyl]-aza-18-crown-6] shows IC50 below 10 µM
// result NO

// query Does O=C(CCC12CC3CC(CC(C3)C1)C2)N1CCOCCOCCN(C(=O)CCC23CC4CC(CC(C4)C2)C3)CCOCCOCC1 have IC50 strictly under 10 µM?
// result NO

// query Just wondering, is IC50 of O=C(CC12CC3CC(CC(C3)C1)C2)N1CCOCCOCCN(C(=O)CC23CC4CC(CC(C4)C2)C3)CCOCCOCC1 below 10 µM?
// result NO

// query Problem: For the molecule O=C(CCC12CC3CC(CC(C3)C1)C2)N1CCOCCOCCOCCOCCOCC1 , is IC50 under 10 µM?
// result NO
